# assayedSystem: recombinant human ACC2 (Homo sapiens)
# Construct: a cDNA encoding human ACC2 (27-2458) was cloned from human kidney cDNA library (Clontech); His-tag (N); made in house; host or cells: Sf-9 insect cells (Bac-to-Bac baculovirus)
# experimentalProtocol: Measurement of inhibitory activity on human ACC2 (MALDI-TOF MS, acetyl CoA to malonyl CoA conversion)
# Type: biochemical
# settings: inhibition activity on human ACC2, Table 82; read-out: IC50
pIC50: −log10 of the molar value.
Use Yes when the recorded pIC50 is no lower than 7; use No when it is lower.

Exercise: Does `CCCc1cc(C)c(Oc2ccc(/C=C/[C@H](C)NC(C)=O)cn2)cn1` have a reported pIC50 of at least 7?
Solution: No

Exercise: Does `CC(=O)N[C@@H](C)/C=C/c1ccc(Oc2ccc(C3=CCOCC3)cc2Cl)nc1` have a reported pIC50 of at least 7?
Solution: No

Exercise: Does `CC(=O)N[C@@H](C)/C=C/c1ccc(Oc2ccc(C3=CC(C)(C)OC(C)(C)C3)cc2Cl)nc1` have a reported pIC50 of at least 7?
Solution: No

====

# assayedSystem: recombinant human ACC2 (Homo sapiens, UniProt O00763)
# Construct: a cDNA encoding human ACC2 (27-2458) was cloned from human kidney cDNA library (Clontech); His-tag (N); made in house; host or cells: Sf-9 insect cells (Bac-to-Bac baculovirus)
# Sequence (O00763 27-2458): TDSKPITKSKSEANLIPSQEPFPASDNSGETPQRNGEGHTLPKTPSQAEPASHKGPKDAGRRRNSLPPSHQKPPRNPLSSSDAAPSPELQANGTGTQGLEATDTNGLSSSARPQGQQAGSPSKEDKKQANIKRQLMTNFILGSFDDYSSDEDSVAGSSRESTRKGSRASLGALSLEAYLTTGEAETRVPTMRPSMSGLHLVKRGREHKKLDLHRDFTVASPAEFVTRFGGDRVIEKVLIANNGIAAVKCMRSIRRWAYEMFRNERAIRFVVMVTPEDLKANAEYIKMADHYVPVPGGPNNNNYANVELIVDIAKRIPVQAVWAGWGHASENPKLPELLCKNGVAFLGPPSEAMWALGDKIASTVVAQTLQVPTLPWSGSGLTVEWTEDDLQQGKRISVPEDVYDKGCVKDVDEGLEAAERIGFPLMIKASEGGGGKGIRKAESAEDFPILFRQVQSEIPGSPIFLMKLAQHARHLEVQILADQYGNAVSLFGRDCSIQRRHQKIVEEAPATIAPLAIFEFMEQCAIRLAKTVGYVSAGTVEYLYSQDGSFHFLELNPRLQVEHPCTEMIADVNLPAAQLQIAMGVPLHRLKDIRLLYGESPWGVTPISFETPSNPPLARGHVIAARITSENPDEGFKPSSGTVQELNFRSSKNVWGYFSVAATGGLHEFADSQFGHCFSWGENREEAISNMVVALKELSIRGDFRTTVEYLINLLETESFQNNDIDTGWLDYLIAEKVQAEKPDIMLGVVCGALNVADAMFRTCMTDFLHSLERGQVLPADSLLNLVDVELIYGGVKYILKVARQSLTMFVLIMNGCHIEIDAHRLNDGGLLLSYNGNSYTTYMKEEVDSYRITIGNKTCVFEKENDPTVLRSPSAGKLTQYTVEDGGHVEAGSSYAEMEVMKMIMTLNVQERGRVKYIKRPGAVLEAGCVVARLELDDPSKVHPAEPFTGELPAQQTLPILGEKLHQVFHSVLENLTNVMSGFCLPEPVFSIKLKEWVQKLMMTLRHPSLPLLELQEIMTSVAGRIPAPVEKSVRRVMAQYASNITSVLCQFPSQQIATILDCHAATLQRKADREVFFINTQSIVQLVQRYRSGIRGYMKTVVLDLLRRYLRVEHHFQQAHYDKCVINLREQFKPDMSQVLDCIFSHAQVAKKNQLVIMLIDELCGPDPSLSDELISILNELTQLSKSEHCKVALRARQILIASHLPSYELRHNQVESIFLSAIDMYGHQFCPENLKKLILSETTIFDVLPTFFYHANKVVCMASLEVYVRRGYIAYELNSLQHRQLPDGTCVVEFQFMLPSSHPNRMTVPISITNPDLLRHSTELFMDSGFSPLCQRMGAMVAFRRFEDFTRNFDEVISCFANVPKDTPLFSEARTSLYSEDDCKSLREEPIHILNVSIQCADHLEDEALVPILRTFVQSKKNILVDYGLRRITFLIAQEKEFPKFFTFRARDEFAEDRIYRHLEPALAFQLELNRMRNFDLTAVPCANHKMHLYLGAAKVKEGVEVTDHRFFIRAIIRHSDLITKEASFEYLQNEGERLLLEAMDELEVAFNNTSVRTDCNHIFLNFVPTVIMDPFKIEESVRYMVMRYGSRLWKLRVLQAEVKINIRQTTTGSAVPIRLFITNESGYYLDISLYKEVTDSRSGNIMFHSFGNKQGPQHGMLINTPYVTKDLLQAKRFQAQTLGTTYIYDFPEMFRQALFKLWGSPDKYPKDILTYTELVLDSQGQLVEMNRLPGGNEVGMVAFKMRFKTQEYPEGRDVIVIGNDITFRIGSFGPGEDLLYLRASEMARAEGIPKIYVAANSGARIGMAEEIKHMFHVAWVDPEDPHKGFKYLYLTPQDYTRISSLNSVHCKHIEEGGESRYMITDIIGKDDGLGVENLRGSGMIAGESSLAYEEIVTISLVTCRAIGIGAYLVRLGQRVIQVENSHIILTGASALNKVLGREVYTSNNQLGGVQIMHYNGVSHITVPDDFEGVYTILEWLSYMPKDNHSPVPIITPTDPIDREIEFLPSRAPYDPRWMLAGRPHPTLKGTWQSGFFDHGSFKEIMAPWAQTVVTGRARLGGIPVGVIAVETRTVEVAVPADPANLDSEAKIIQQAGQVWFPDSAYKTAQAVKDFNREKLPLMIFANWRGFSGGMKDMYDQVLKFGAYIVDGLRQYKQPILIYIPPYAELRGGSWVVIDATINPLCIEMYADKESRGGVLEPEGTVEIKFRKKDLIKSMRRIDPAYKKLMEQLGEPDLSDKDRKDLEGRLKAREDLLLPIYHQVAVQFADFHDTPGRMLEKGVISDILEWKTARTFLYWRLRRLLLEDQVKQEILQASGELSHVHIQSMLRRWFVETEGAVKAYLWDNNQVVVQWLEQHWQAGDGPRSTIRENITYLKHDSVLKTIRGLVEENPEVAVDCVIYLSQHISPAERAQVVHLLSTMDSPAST
# experimentalProtocol: Measurement of inhibitory activity on human ACC2 (MALDI-TOF MS, acetyl CoA to malonyl CoA conversion)
# Type: biochemical
# settings: inhibition activity on human ACC2, Table 79; read-out: IC50
We'd kindly ask you to apply these IC50 classes: bin A: < 50 nM; bin B: ≥ 50 nM and < 400 nM; bin C: ≥ 400 nM

// below: answered compounds
- givenSmiles: "CC(=O)N[C@@H](C)/C=C/c1cnn(Cc2c(Cl)cc(OCC3CC3)cc2Cl)c1"
  answerLabel: "bin C"
- givenSmiles: "CC(=O)N[C@@H](C)/C=C/c1cnc(Oc2ccc(OCC3CC3)cc2C#N)s1"
  answerLabel: "bin B"
- givenSmiles: "C[C@@H](/C=C/c1cnc(Oc2ccc(OCC3CC3)cc2Cl)s1)NC(=O)Cc1cccnc1"
  answerLabel: "bin A"

Now take the following compound into account.
Exercise: Class for `COCCOCC(=O)N[C@@H](C)/C=C/c1cnc(Oc2ccc(OCC3CC3)cc2Cl)s1` ?
Solution: bin C

====

# assayedSystem: recombinant human ACC2 (Homo sapiens, UniProt O00763)
# Construct: a cDNA encoding human ACC2 (27-2458) was cloned from human kidney cDNA library (Clontech); His-tag (N); made in house; host or cells: Sf-9 insect cells (Bac-to-Bac baculovirus)
# experimentalProtocol: Measurement of inhibitory activity on human ACC2 (MALDI-TOF MS, acetyl CoA to malonyl CoA conversion)
# Format: biochemical
# settings: inhibition activity on human ACC2, untitled table (Table 81); read-out: IC50
quantityKind: IC50 (nM)
State just the number; it will be interpreted in nM.

Known results for compounds:
- compound: "CCC(C)(C)c1ccc(Oc2ccc(/C=C/[C@H](C)NC(C)=O)cn2)c(Cl)c1 [Compound I-253]"
  unitAbbreviation: "nM"
  readoutNumber: 17
- compound: "CC(=O)N[C@@H](C)/C=C/c1cnc(Oc2ccc(OCC3CC3)c(Cl)c2)cn1 [Compound I-291]"
  unitAbbreviation: "nM"
  readoutNumber: 18

So for CC(=O)NC(C)(C)/C(C)=C/c1ccc(Oc2ccc(OCC3CC3)cc2Cl)nc1 [Compound I-290] , the logged IC50 turned out to be 600

Ref: patent US20150246938A1
